# subject of test: human LXRα (Homo sapiens, UniProt Q13133)
# Sequence (Q13133 1-447): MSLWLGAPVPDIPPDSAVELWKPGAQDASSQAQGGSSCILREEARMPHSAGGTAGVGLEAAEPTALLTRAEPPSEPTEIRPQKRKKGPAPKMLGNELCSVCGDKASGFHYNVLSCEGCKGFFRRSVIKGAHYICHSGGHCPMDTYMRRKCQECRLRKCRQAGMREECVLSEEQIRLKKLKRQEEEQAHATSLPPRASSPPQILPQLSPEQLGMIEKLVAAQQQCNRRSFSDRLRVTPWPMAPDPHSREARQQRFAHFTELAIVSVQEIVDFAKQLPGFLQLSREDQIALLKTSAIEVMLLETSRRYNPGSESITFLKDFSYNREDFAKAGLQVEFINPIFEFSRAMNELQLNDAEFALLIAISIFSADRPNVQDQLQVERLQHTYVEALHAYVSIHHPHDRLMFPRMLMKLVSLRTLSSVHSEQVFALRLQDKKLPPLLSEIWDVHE
measured parameter: IC50 (nM)
Answer with a number only, understood to be in nM.

O=C(O)c1cc2cccc(NCc3cccc(-c4c(Cc5ccccc5)cnc5c(C(F)(F)F)cccc45)c3)c2[nH]1    1250

IN: # get_value(readout='IC50', item= `O=C(O)Cc1cccc2cc(OCc3cccc(-c4c(Cc5ccccc5)cnc5c(C(F)(F)F)cccc45)c3)ccc12` )
OUT: 267

IN: Bench note: what IC50 did `O=C(O)c1ccc2cc(NCc3cccc(-c4ccnc5c(C(F)(F)F)cccc45)c3)ccc2c1` show?
OUT: 8000

IN: Which value of IC50 has been reported for `COc1ccc(C(=O)O)cc1C#Cc1cccc(-c2c(Cc3ccccc3)cnc3c(C(F)(F)F)cccc23)c1` in the records?
OUT: 2630

IN: Return reported IC50; argument: `O=C(O)c1cc(Br)cc(Oc2cccc(-c3c(Cc4ccccc4)cnc4c(Cl)cccc34)c2)c1`
OUT: 1510

IN: Would you kindly share the measured IC50 for `Cc1cccc(NCc2cccc(-c3c(Cc4ccccc4)cnc4c(C(F)(F)F)cccc34)c2)c1C(=O)O` ?
OUT: 2000

====

Listed here are compounds together with their documented Binding ratio a/b.
# subject of test: human LXRβ (Homo sapiens, UniProt P55055)
# Construct: biotin (biotinylated; biotinylation tag not described); made in house; host or cells: E. coli
# Sequence (P55055 1-460): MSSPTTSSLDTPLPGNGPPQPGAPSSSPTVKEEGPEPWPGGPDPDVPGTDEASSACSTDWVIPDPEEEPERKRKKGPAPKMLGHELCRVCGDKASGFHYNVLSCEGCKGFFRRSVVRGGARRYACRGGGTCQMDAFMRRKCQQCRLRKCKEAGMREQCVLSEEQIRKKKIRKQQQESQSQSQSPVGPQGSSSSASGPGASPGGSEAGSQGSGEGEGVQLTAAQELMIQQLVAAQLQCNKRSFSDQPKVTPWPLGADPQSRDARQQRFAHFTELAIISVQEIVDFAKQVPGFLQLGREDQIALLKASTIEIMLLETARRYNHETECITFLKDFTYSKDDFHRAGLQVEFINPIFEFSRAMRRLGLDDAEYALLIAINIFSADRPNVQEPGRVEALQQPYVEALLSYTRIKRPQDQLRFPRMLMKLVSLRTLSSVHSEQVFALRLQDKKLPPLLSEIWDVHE
# protocol description: Ligand-binding test procedure for human LXRβ (3H T0901317 competition, flash plates)
# condition: IC50 (μM) LXRα binding/IC50 (μM) LXRβ binding
Write the number on its own, no unit after it.

Use the examples below as a reference point.
Cn1cc(C(=O)O)c2cc(NCc3cccc(-c4c(Cc5ccccc5)cnc5c(C(F)(F)F)cccc45)c3)ccc21    3
Cc1c(NCc2cccc(-c3c(Cc4ccccc4)cnc4c(C(F)(F)F)cccc34)c2)ccc(C(=O)O)c1C    2
O=C(O)c1ccc(NCc2cccc(-c3c(Cc4ccccc4)cnc4c(C(F)(F)F)cccc34)c2)cc1    2

IN: API: value(readout=Binding ratio a/b, system=human LXRβ (Homo sapiens, UniProt P55055)) for record `O=C(O)c1ccc2cc(NCc3cccc(-c4c(Cc5ccccc5)cnc5c(C(F)(F)F)cccc45)c3)ccc2c1`
OUT: 11

IN: Which measured Binding ratio a/b belongs to `O=C(O)c1c(NCc2cccc(-c3c(Cc4ccccc4)cnc4c(C(F)(F)F)cccc34)c2)cccc1C(F)(F)F` , tested on human LXRβ (Homo sapiens, UniProt P55055)?
OUT: 6

IN: Recall the recorded Binding ratio a/b for `Cc1ccc(OCc2cccc(-c3c(Cc4ccccc4)cnc4c(C(F)(F)F)cccc34)c2)c(C(=O)O)c1` with human LXRβ (Homo sapiens, UniProt P55055) and state it.
OUT: 2

IN: Enter reported Binding ratio a/b observed with human LXRβ (Homo sapiens, UniProt P55055) for `Cc1cnc2c(C(F)(F)F)cccc2c1-c1cccc(CNc2ccc(C(=O)O)c(Cl)c2)c1`
OUT: 3

IN: Give recorded Binding ratio a/b with human LXRβ (Homo sapiens, UniProt P55055) for the following compound: `Cc1cc(NCc2ccc(-c3c(Cc4ccccc4)cnc4c(C(F)(F)F)cccc34)s2)c(C)cc1CC(=O)O`
OUT: 6

Data provenance is patent US20090069373A1.
